Tested on: PC-3 prostate
method-description: NCI tumour cell line growth inhibition, 48 h
Would you kindly list TGI for each of these compounds?
Write the number in µM without appending the unit.

IN: Enter reported TGI observed with PC-3 prostate for O=C1C(Cl)=C(N2C(=O)CCCC2=O)C(=O)c2ccccc21
OUT: 41.7

IN: Provide the documented TGI with PC-3 prostate as the system for O=C(Nc1ccc(Cl)cc1F)c1cc(I)ccc1O
OUT: 6.36

---

System: DU-145 prostate
method-description: NCI tumour cell line growth inhibition, 48 h
outcome-measure: TGI

IN: Please give the measured TGI for this compound: Cn1c(O)c(C(/C=C/c2ccccc2)=NCCN=C(/C=C/c2ccccc2)c2c(O)n(C)c(=O)n(C)c2=O)c(=O)n(C)c1=O
OUT: > 50 µM

IN: Item under review: COc1ccc(-c2nn(-c3cccc(NC(=O)c4ccc5c(c4)OCCO5)c3)cc2-c2ccncc2)cc1Cl . Reported TGI?
OUT: 24.9 µM

IN: # TGI lookup, item O=C(O)c1ccc([N+]2=Cn3c(nc4ccccc43)C2)cc1
OUT: > 100 µM

IN: Look at this compound and give its reported TGI. CC(=O)OC[C@@H]1[C@H]2CC[C@]3(C)[C@@H](OC(C)=O)CC[C@H]3[C@@H]2CC[C@H]1C1(C)SCCS1
OUT: > 25 µM

IN: Look up TGI for this compound: O=C(c1ccc2ccccc2c1)N(Cc1cccnc1)C(=S)N(Cc1cccnc1)C(=O)c1ccc2ccccc2c1
OUT: 69.5 µM

IN: Which TGI is listed for O=c1oc2nc(-c3ccccc3)cc(C(F)(F)F)c2n1Cc1ccccc1 ?
OUT: > 100 µM

IN: Quick check: TGI of C=CCCCC1SC2=C(CC)CCCN2C1=O (stereo not given) ?
OUT: > 100 µM

IN: Suppose we examine the compound Cc1ccc(C)c(NC(=O)NCc2ccc(Cl)cc2)c1 ; what TGI value has been reported?
OUT: > 100 µM

IN: Reported TGI for O=c1oc2ccccc2c(O)c1C1c2c(c3ccccc3oc2=O)Oc2c1c(=O)oc1ccccc21 : what is it?
OUT: > 100 µM

IN: Reported TGI, compound c1ccc(-c2cc(C3CO3)c3ccccc3n2)cc1 (stereo not given) : ____
OUT: 34.7 µM

---

Test system: SF-268 CNS
method-description: NCI tumour cell line growth inhibition, 48 h; in the data active = GI50 below about 0.43 µM; inactive = the rest
Result category, one only: yes (1) = active, no (0) = inactive

IN: For O=C(CSC(c1ccccc1)c1ccccc1)N/N=C/c1cccc(Cl)c1 , what call appears in the results of this test?
OUT: no (0)

IN: I would be grateful if you could indicate the recorded call for C=CC[P+](c1ccccc1)(c1ccccc1)c1ccccc1 .
OUT: no (0)

IN: What was the test verdict on CCOC(=O)c1c2c(n(Cc3ccccc3)c1C)-c1ccccc1C(=O)C2=O ?
OUT: no (0)

IN: Per the assay record, what outcome was assigned to C[C@@H]1CC[C@@H]2[C@@H]1[C@H](OC(=O)/C=C/c1ccccc1)[C@]1(C3CCCCC3)C[C@@H](NC(=O)CO)[C@@]2(C)O1 ?
OUT: no (0)

IN: Which outcome was entered for the compound O=C1c2ccccc2C(=Cc2ccccc2)c2ccccc21 in this test?
OUT: no (0)

IN: State the result this test recorded for COC(=O)c1ccc(NC(=O)Nc2ccc3oc(=O)c4ccccc4c3c2)cc1 .
OUT: no (0)

IN: In this assay, the call recorded for CNC(=O)c1ccc2cc(C3(O)CCn4cncc43)ccc2c1 (stereo not given) was what?
OUT: no (0)

IN: Could you please tell me the result logged for CCCC[N+](CCCC)=c1ccc2nc3c(C)cc(N(CC)CC)cc3sc-2c1 in this assay?
OUT: yes (1)

IN: Lab log entry: O=C(Nc1ccc(CN2CCOCC2)cc1)c1[nH]ncc1Nc1ncnc2sccc12 — outcome as called in the assay?
OUT: no (0)

IN: Query: recorded result category for O=c1cc(N2CCNCC2)oc2c(-c3ccccc3)cccc12 in this test
OUT: no (0)
